Reference source for all entries: patent US20140017242A1

SYSTEM: T1, human BKB2R-derived epitope peptide (SEQ ID NO:73), PEG-biotin (human, also: PEG-biotin, site not given here)
T1 construct: also called immunogenic human BKB2R peptide fragment
T1 peptide: KEYSDEGHNVTAC
ASSAY_METHOD_TEXT: BLI (Octet), peptide-PEG-biotin on streptavidin sensor, antibody 250 nM
Where no end group is shown, it is not given here.
Please respond with Yes when measured koff is strictly beneath 0.7 s⁻¹, and with No in all other cases.

Task: Item humanized anti-BKB2R antibody L2/H2 (antibody, human IgG2, kappa, V domains shown, also called H2/L2) VH: EVQLVESGGGLVQPGGSLRLSCVASGFTFSDYWMSWVRQAPGKGLEWVAEIRLKSDNYATHYAESVKGRFTISRDDAKNSLYLQMNSLRAEDTAVYYCTRDYYAMEYWGQGTLVTVSS VL: DIVMTQSPLSLPVTPGEPASISCRSSQTIVHSNGKTYLEWYLQKPGQSPQLLIYKVSNRFSGVPDRFSGSGSGTEFTLKISRVEAEDVGVYYCFQASHVPYTFGQGTKLEIKR : koff beneath 0.7 s⁻¹, strictly?
Output: Yes

Task: Criterion: koff strictly below 0.7 s⁻¹. Is it met by humanized anti-BKB2R antibody L2/H1 (antibody, human IgG2, kappa, V domains shown) VH: EVQLVESGGGLVQPGGSLRLSCAASGFTFSDYWMSWVRQAPGKGLEWVAEIRLKSDNYATHYAESVKGRFTISRDNAKNSLYLQMNSLRAEDTAVYYCTRDYYAMEYWGQGTLVTVSS VL: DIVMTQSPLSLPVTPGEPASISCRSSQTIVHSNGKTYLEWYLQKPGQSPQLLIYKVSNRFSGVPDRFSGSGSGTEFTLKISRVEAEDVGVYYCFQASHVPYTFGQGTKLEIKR ?
Output: Yes

Task: Hi there! Is koff for chimeric/humanized anti-BKB2R antibody L1/HC (antibody, human IgG2, V domains shown, not shown: human IgG2 constant region) VH: EVKLEESGGGLVQPGGSMKLSCVVSGFTFSDYWMSWVRHSPEMGLEWVAEIRLKSDNYATHYAESVKGRFTISRDDSKSRLYLQINSLRGEDTGIYYCTRDYYAMEYWGQGTSVTVSS VL: DIVMTQSPLSLPVTPGEPASISCRSSQTIVHSNGKTYLEWYLQKPGQSPQLLIYKVSNRFSGVPDRFSGSGSGTDFTLKISRVEAEDVGVYYCFQASHVPYTFGQGTKLEIKR below 0.7 s⁻¹, do you know?
Output: No

Task: Does the reported koff of chimeric/humanized anti-BKB2R antibody L2/HC (antibody, human IgG2, V domains shown, not shown: human IgG2 constant region) VH: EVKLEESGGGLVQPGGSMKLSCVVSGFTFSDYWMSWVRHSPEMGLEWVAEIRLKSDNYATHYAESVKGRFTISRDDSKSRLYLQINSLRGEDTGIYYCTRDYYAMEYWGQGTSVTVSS VL: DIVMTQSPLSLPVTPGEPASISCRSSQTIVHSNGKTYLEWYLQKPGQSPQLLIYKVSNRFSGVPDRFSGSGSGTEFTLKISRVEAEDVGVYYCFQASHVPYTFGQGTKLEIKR stay below 0.7 s⁻¹?
Output: No
